# TARGET OF ASSAY: full length human TREX1 (Homo sapiens, UniProt Q9NSU2)
# Construct: N-terminally His-Tev tagged full length human TREX1; made in house; host or cells: E. coli
# Sequence (Q9NSU2 whole entry): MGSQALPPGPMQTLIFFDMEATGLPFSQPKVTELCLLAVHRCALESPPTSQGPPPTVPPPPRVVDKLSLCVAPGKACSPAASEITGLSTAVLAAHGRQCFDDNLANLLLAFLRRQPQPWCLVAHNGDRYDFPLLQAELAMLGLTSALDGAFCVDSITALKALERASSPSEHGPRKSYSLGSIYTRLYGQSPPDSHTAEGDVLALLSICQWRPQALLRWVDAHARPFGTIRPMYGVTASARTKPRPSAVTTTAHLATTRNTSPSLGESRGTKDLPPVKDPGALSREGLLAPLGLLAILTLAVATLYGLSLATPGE
# MEASUREMENT PROTOCOL: hTREX1 Biochemical Assay (fluorescence, dsDNA substrate degradation)
# EXPERIMENTAL PARAMETERS: biochemical, read-out: hTREX1 IC50
OBSERVABLE: IC50

compound="CC(c1nc(C(=O)Nc2cnoc2)c(O)c(=O)n1C)C(c1cnn(CCOC(F)(F)F)c1)c1cc(F)ccc1C#N (single isomer, unassigned) [Example 101 D1E1]" target_of_assay="full length human TREX1 (Homo sapiens, UniProt Q9NSU2)" endpoint_value="> 0.01 µM"
compound="CC(c1nc(C(=O)Nc2cnoc2)c(O)c(=O)n1C)C(c1cnn(CC2COC2)c1)c1cc(F)ccc1Cl (single isomer, unassigned) [Example 94 D1E1]" target_of_assay="full length human TREX1 (Homo sapiens, UniProt Q9NSU2)" endpoint_value="0.001 to 0.01 µM"
compound="CC(c1nc(C(=O)Nc2cnoc2)c(O)c(=O)n1C)C(c1cnn(CC(C)(C)O)c1)c1cc(F)ccc1Cl (single isomer, unassigned) [Example 92 D1E2]" target_of_assay="full length human TREX1 (Homo sapiens, UniProt Q9NSU2)" endpoint_value="0.001 to 0.01 µM"

----------
# TARGET OF ASSAY: full length human TREX1 (Homo sapiens)
# Construct: N-terminally His-Tev tagged full length human TREX1; made in house; host or cells: E. coli
# MEASUREMENT PROTOCOL: TREX1 Kinetics Assays (TR-FRET association and dissociation, global fit with Kintek Explorer)
# Assay type: binding
# EXPERIMENTAL PARAMETERS: hTREX1, TR-FRET, 25° C., global fit
OBSERVABLE: kon (M⁻¹ s⁻¹)

molecule="CC(c1nc(C(=O)Nc2cnoc2)c(O)c(=O)n1C)C(c1cnn(C)c1)c1cc(Cl)ccc1C#N (single isomer, unassigned) [Example 26 D1E2]" unit_abbrev="M⁻¹ s⁻¹" endpoint_value=153000
molecule="CCn1cc(C(c2cc(F)ccc2C#N)C(C)c2nc(C(=O)Nc3cnoc3)c(O)c(=O)n2C)cn1 (single isomer, unassigned) [Example 17 D1E2]" unit_abbrev="M⁻¹ s⁻¹" endpoint_value=168000
molecule="CC(c1nc(C(=O)Nc2cnoc2)c(O)c(=O)n1C)C(c1cnn(CC(F)(F)F)c1)c1ccccc1C#N (single isomer, unassigned) [Example 22 D1E1]" unit_abbrev="M⁻¹ s⁻¹" endpoint_value=106000
molecule="CCn1cc(C(c2ccccc2C#N)C(C)c2nc(C(=O)Nc3cnoc3)c(O)c(=O)n2C)cn1 (single isomer, unassigned) [Example 13 D1E1]" unit_abbrev="M⁻¹ s⁻¹" endpoint_value=215000
molecule="CC(c1nc(C(=O)Nc2cnoc2)c(O)c(=O)n1C)C(c1ccccc1C#N)c1cn(C)nc1C#N (single isomer, unassigned) [Example 10 D1E1]" unit_abbrev="M⁻¹ s⁻¹" endpoint_value=757000
molecule="CC(c1nc(C(=O)Nc2cnoc2)c(O)c(=O)n1C)C(c1cnn(C(F)F)c1)c1ccccc1C#N (single isomer, unassigned) [Example 38 D1E1]" unit_abbrev="M⁻¹ s⁻¹" endpoint_value=163000

----------
# TARGET OF ASSAY: full length mouse TREX1 (Mus musculus)
# Construct: N-terminally His-Tev tagged full length mouse TREX1; made in house; host or cells: E. coli
# Sequence (Q91XB0 whole entry): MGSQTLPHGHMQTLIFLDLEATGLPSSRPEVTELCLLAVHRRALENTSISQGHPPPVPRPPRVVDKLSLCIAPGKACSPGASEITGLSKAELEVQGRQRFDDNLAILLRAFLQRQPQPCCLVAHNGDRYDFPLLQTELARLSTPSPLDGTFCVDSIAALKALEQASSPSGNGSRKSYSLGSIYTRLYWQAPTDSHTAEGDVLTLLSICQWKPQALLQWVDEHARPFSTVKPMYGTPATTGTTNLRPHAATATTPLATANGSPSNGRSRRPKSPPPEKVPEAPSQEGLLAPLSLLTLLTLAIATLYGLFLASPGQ
# MEASUREMENT PROTOCOL: mTREX1 Biochemical Assay (fluorescence, dsDNA substrate degradation)
# EXPERIMENTAL PARAMETERS: biochemical, read-out: mTREX1 IC50
OBSERVABLE: IC50

compound="CC(c1nc(C(=O)Nc2cnoc2)c(O)c(=O)n1C)C(c1cnn(C)c1)c1ccc(C(F)(F)F)cc1C#N (single isomer, unassigned) [Example 30 D1E1]" target_of_assay="full length mouse TREX1 (Mus musculus)" observable=IC50 endpoint_value="< 1 nM"
compound="COCCn1ncc(C(c2cc(F)ccc2Cl)C(C)c2nc(C(=O)Nc3cnoc3)c(O)c(=O)n2C)c1C (single isomer, unassigned) [Example 108 D2E1]" target_of_assay="full length mouse TREX1 (Mus musculus)" observable=IC50 endpoint_value="> 10 nM"
compound="Cc1nn(C)cc1C(c1ccc(F)cc1C#N)C(C)c1nc(C(=O)Nc2cnoc2)c(O)c(=O)n1C (single isomer, unassigned) [Example 56 D2E1]" target_of_assay="full length mouse TREX1 (Mus musculus)" observable=IC50 endpoint_value="> 10 nM"
compound="Cc1cc(C(c2cc(F)ccc2C#N)C(C)c2nc(C(=O)Nc3cnoc3)c(O)c(=O)n2C)n(C)n1 (single isomer, unassigned) [Example 111 D1E1]" target_of_assay="full length mouse TREX1 (Mus musculus)" observable=IC50 endpoint_value="> 10 nM"
compound="COC(C)(C)Cn1cc(C(c2ccccc2C#N)C(C)c2nc(C(=O)Nc3cnoc3)c(O)c(=O)n2C)cn1 (single isomer, unassigned) [Example 37 D2E1]" target_of_assay="full length mouse TREX1 (Mus musculus)" observable=IC50 endpoint_value="> 10 nM"
compound="CC(c1nc(C(=O)Nc2cnoc2)c(O)c(=O)n1C)C(c1cocn1)c1ccccc1C#N (single isomer, unassigned) [Example 50 D2E1]" target_of_assay="full length mouse TREX1 (Mus musculus)" observable=IC50 endpoint_value="> 10 nM"
compound="Cc1cnc(C(c2cc(F)ccc2Cl)C(C)c2nc(C(=O)Nc3cnoc3)c(O)c(=O)n2C)cn1 (single isomer, unassigned) [Example 117 D1E2]" target_of_assay="full length mouse TREX1 (Mus musculus)" observable=IC50 endpoint_value="1 to 10 nM"
compound="CC(c1nc(C(=O)Nc2cnoc2)c(O)c(=O)n1C)C(c1cnn(C)c1)c1ccccc1C#N (single isomer, unassigned) [Example 2 D1E2]" target_of_assay="full length mouse TREX1 (Mus musculus)" observable=IC50 endpoint_value="> 10 nM"
compound="CC(c1nc(C(=O)Nc2cnoc2)c(O)c(=O)n1C)C(c1cnn(C(F)F)c1)c1ccccc1C#N (single isomer, unassigned) [Example 38 D1E2]" target_of_assay="full length mouse TREX1 (Mus musculus)" observable=IC50 endpoint_value="> 10 nM"
compound="Cc1ncc(C(c2ccccc2C#N)C(C)c2nc(C(=O)Nc3cnoc3)c(O)c(=O)n2C)nc1C (single isomer, unassigned) [Example 81 D1E2]" target_of_assay="full length mouse TREX1 (Mus musculus)" observable=IC50 endpoint_value="1 to 10 nM"
compound="COCCn1cc(C(c2cc(F)c(F)cc2Cl)C(C)c2nc(C(=O)Nc3cnoc3)c(O)c(=O)n2C)cn1 (single isomer, unassigned) [Example 73 D1E1]" target_of_assay="full length mouse TREX1 (Mus musculus)" observable=IC50 endpoint_value="1 to 10 nM"
compound="CC(c1nc(C(=O)Nc2cnoc2)c(O)c(=O)n1C)C(c1cnn(C(C)C)c1)c1ccccc1C#N (single isomer, unassigned) [Example 105 D2E2]" target_of_assay="full length mouse TREX1 (Mus musculus)" observable=IC50 endpoint_value="> 10 nM"
compound="CC(c1nc(C(=O)Nc2cnoc2)c(O)c(=O)n1C)C(c1cc(F)ccc1Cl)c1cn(C)nc1C#N (single isomer, unassigned) [Example 89 D1E2]" target_of_assay="full length mouse TREX1 (Mus musculus)" observable=IC50 endpoint_value="1 to 10 nM"
compound="CC(c1nc(C(=O)Nc2cnoc2)c(O)c(=O)n1C)C(c1cnn(C)c1)c1ccccc1C#N (single isomer, unassigned) [Example 2 D2E1]" target_of_assay="full length mouse TREX1 (Mus musculus)" observable=IC50 endpoint_value="> 10 nM"
compound="CC(c1nc(C(=O)Nc2cnoc2)c(O)c(=O)n1C)C(c1ccccc1C#N)c1cn(C)nc1C#N (single isomer, unassigned) [Example 10 D2E1]" target_of_assay="full length mouse TREX1 (Mus musculus)" observable=IC50 endpoint_value="1 to 10 nM"
compound="Cn1cc(C(c2ccccc2C#N)C(c2nc(C(=O)Nc3cnoc3)c(O)c(=O)n2C)C(F)(F)F)cn1 (single isomer, unassigned) [Example 40 D2E2]" target_of_assay="full length mouse TREX1 (Mus musculus)" observable=IC50 endpoint_value="> 10 nM"
compound="CC(c1nc(C(=O)Nc2cnoc2)c(O)c(=O)n1C)C(c1cn(C)cn1)c1ccccc1C#N (single isomer, unassigned) [Example 39 D2E1]" target_of_assay="full length mouse TREX1 (Mus musculus)" observable=IC50 endpoint_value="> 10 nM"
compound="Cc1ccn(C(c2ccccc2Cl)C(C)c2nc(C(=O)Nc3cnoc3)c(O)c(=O)n2C)n1 (single isomer, unassigned) [Example 49 D1E1]" target_of_assay="full length mouse TREX1 (Mus musculus)" observable=IC50 endpoint_value="1 to 10 nM"
compound="CC(c1nc(C(=O)Nc2cnoc2)c(O)c(=O)n1C)C(c1cnn(C)c1)c1c(C#N)cccc1C#N (single isomer, unassigned) [Example 19 D2E2]" target_of_assay="full length mouse TREX1 (Mus musculus)" observable=IC50 endpoint_value="> 10 nM"
compound="CCn1cc(C(c2ccccc2Cl)C(C)c2nc(C(=O)Nc3cnoc3)c(O)c(=O)n2C)cn1 (single isomer, unassigned) [Example 85 D1E2]" target_of_assay="full length mouse TREX1 (Mus musculus)" observable=IC50 endpoint_value="> 10 nM"
compound="CC(c1nc(C(=O)Nc2cnoc2)c(O)c(=O)n1C)C(c1cnn(C)c1)c1cccnc1C#N (single isomer, unassigned) [Example 7 D2E1]" target_of_assay="full length mouse TREX1 (Mus musculus)" observable=IC50 endpoint_value="> 10 nM"
compound="CCn1ncc(C(c2ccc(F)cc2C#N)C(C)c2nc(C(=O)Nc3cnoc3)c(O)c(=O)n2C)c1C (single isomer, unassigned) [Example 65 D1E1]" target_of_assay="full length mouse TREX1 (Mus musculus)" observable=IC50 endpoint_value="< 1 nM"
compound="CC(c1nc(C(=O)Nc2cnoc2)c(O)c(=O)n1C)C(c1cnn(C)c1)c1ccc(O)cc1C#N (single isomer, unassigned) [Example 80 D1E2]" target_of_assay="full length mouse TREX1 (Mus musculus)" observable=IC50 endpoint_value="> 10 nM"
